# METHOD: yeast display, Sf9 membrane polyspecificity reagent, FACS + sequencing; frameworks hold sequencing errors
MEASURED_QUANTITY: polyreactivity (PSR sort gate)

See these solved cases before continuing.
QUERY_SEQUENCE	RESULT
QVQLVESGGGLVQAGGSLRLSSAASGFTFVSYAMGWYRQAPGKERELVASISKRGGTTYYADSVKGRFTISRDNAKKTVFLQMNSLKPDDTAVYYCNARDTRRYVTYDSGYDYWGQGTQVTVSS	high polyreactivity
QVQLVESGGGLVQAGGSLRLSCAASGSTFEVNAMGWYRQAPGKERELVATITRSGGSTYYADSVKGRFTISRDNAKNTVYLQMNSLKPEDTAVYYCNAMWELKWGQGTQVTVSS	low polyreactivity
QVQLVESGGGLVQAGGSLRLCCAASGSIFLLNAMGWYRQAPGKERELVAAISWGGGSTYYADSVKGRFTISRDNAKNTVYLQMNSLKPEDTAVYYCNASVTLGLEVDYSGQGTQVTVSS	low polyreactivity
QVQLVESGGGLVQAGGSLRLSCAASGSTFWKYAMGWYRQAPGKERELVAAITRNGGRTFYADSVKGRFTISRDNAKNTVYLQMNSLKPEDTAVYYCNATAGHGYYYWGQGTQVTVSS	high polyreactivity

Switching to the query record.
Problem: For the sequence shown here, `QVQLVESGGGLVQAGGSLRLSCAASGSTLQVYAMGWYREAPGKERELVAAISKSGGRTYYADSVKGRFSISRDNAKNTFYLQMNSLKPEDTAVYYCAADVGTAQSTYGYWGQGTQVTVSS` , give the reported polyreactivity (PSR sort gate).
Result: high polyreactivity

###

# METHOD: yeast display, Sf9 membrane polyspecificity reagent, FACS + sequencing; frameworks hold sequencing errors
MEASURED_QUANTITY: polyreactivity (PSR sort gate)

Sample records with polyreactivity (PSR sort gate):
QUERY_SEQUENCE	RESULT
QVQLVESGGGLVQAGGSLRLSCAASGSILAIYAMGWYRQAPGKERELVAAITWSGDSTYYADSVKGRFTISRDNAKNTVYLQMNSLKPEDTAVYYCAAGPGYWYEHEYWGQGTQVTVSS	low polyreactivity
QVQLVESGGGLVQAGGSLRLSCAASGFNFYTNVMGWYRPAPGKERELVAAINSGGSTNYADSVKGRFTISRDNAKNTVYLQMNSLKPEDTAVYYCAARVARISVPYDYWGQGTQVTVSS	low polyreactivity
QVQLVESGGGLVQAGGSLRLSCAASGRIFYGYDMGWYRQAPGKERELVAAITRGVSTYYADSVKGRFTISRDNAKNTVYLQMNSLKPEDTAVYYCAADLSPYVNYWWEYYYWGQGTQVTVSS	low polyreactivity
QVQLVESGGGLVQAGGSLRLSCAASGRTFDHYAMGWYRQAPGKERELVAAITSGGSTYYADSVKGRFTISRDNAKNTVYLQRNSLKPEDTAVYYCNKDSSFWGYYIAQVNERDYWGQGTQVTVSS	low polyreactivity
QVQLVESGGGLVQAGGSLRLSCAASGFIFYYYAMGWYRQAPGKERELVAAITQGGGSTYYADSVKGRFTISRDNAKNTVFLQMNSLKPEDTAVYYCAAVKRVYAHSRAFSSDFYYWGQGTQVTVSS	high polyreactivity
QVQLVESGGGLVQAGGSLRLSCAASGSTFVVNAMGWYRQAPGKERELVAAITQSGGSTFYADSVKGRFTISRDNAKNTVYFQMNSLKPEDTAVYYWGQGTQVTVSS	low polyreactivity

Problem: I am curious: what polyreactivity (PSR sort gate) value has been reported for `QVQLVESGGGLVQAGGSLRLSCAASGITFQRYAMGWYRQAPGKERELVAAISTNGGTTYYADSVKGRFTISRDNAKNTVYLQMNSLKPEDTAVYYCNAESGYVYYIRYNYWGQGTQVTVSS` ?
Result: high polyreactivity

Problem: Quick check: polyreactivity (PSR sort gate) of `QVQLVESGGGLVQAGGSLRLSCAASGSTFDGYALGWYRQAPGKERELVAAISKNGGRTYYADSVKGRFTISRDNAKNTVYLQMNSLKPEDTAVYYCAKDIIKYDYDYWGQGTQVTVSS` ?
Result: low polyreactivity

Problem: Looking for the measured polyreactivity (PSR sort gate) of `QVQLVESGGGLVQAGGSLRLSCAASGFIFSTNAMGWYRQAPGKERELVATIRSGGSTNYADSVKGRFTISRDNAKNTVYLQMNSLKPEDTAVYYCAAEPPGSTYEGGYWGQGTQVTVSS` , can you help?
Result: low polyreactivity

Problem: Entry under review: `QVQLVESGGGLVQAGGSRRLSCAASGSTFEYNAMGWYRQAPGKERELVASSTNYADSVKGRFTISRDNAKNTVYLPMNSLKPEDTAVYYCAREQGVNRNHDYWGQGTQVTVSS` . Reported polyreactivity (PSR sort gate)?
Result: low polyreactivity

Problem: I would be grateful if you could share the reported polyreactivity (PSR sort gate) for `QLQLVESRGGLVQSGGSLRLSCAASGRIFWRYAMGWYRQAPGNERELVAAISGRSGSTYYADSVKGRFTISRDNAKNTVYLLMNSLKAEDTAVYYCAAKYGTLRYDYWGQGTQVTVSS` .
Result: high polyreactivity

###

# METHOD: yeast display, Sf9 membrane polyspecificity reagent, FACS + sequencing; frameworks hold sequencing errors
MEASURED_QUANTITY: polyreactivity (PSR sort gate)

Please review the entries below; each comes with its answer.
QUERY_SEQUENCE	MEASURED_QUANTITY	RESULT
QVQLVESGGGLVQAGGSLRLSCAASGRTFRPYAMGLYRQEPGKERELVAAITSGGSTYYADSVKGRLTFSRDNAKYTVYLQMNSLKTEDTAVYYCNAKYYYQPPYDYWVQGTQVTVSS	polyreactivity (PSR sort gate)	low polyreactivity
QVQLVESGGGLVQPGGSLRLSCAASGSIFIVYAMGWYRQAPGQERELVAGISVRTGSTYYADSVKGRFTISRDNAKNTGYLQMNSLKPEDTAVYYCAAPGYTGLGRNYWGQGTQVTVSS	polyreactivity (PSR sort gate)	low polyreactivity
QVQLVESGGGLVQAGGSLRLSCAASGRIFRYYTMGWYRQAPGKERELVAAITARGTRTYYADSVKGRFTISRDNAKNTVYLQMNSLKPEETSVYYCAADRYIYFAPSMDYWGQGTQVTVSS	polyreactivity (PSR sort gate)	high polyreactivity
QVQLVESGGGLVQAGGSLRLSCAASGRILSYYAMGWYRQAPGKERELVATISASGGSTFYADSVKGRFTISRDNAKNTVYLQMNSLKPEDTAVYYCNAYWGRRVQRDYWGQGTQVTVSS	polyreactivity (PSR sort gate)	high polyreactivity

Problem: For the sequence shown here, `QVQLVESGGGLVQAGGSLRLSCAASGSNFKTYAMGLYRQAPGKERELVAAISSGGSTYYADSVKGRFTISRDNAKITVYLQMNSLKPEDTAVYYCAADPWGAFVSFASYYYWGQATQVTVSS` , give the reported polyreactivity (PSR sort gate).
Result: low polyreactivity

###

# METHOD: yeast display, Sf9 membrane polyspecificity reagent, FACS + sequencing; frameworks hold sequencing errors
MEASURED_QUANTITY: polyreactivity (PSR sort gate)

QUERY_SEQUENCE	polyreactivity (PSR sort gate)
QVQLVESGGGLVQAGGSLRLSCAASGLIFLYYTMGWYRQAPGKERELVAAISSAGRTNYADSVKGRFTISRDNAKNTVYLQMNSLKPEDTAVYYCNADGGWWARYGYWGQGTQVTVSS	low polyreactivity
QVQLVESGGGLVQAGGSLRLSCAASGRIFGLYAMGWYRQAPGKERELVATITRRAGSTYYADSVKGRFTISRDNAKNTVYLQMNSLKPEDTAVYYCAARSWANYDYWGQGTQVTVSS	high polyreactivity
QVQLVESGGGLVQAGGSLRLSCAASGSTFWYYAMGWSRQAPGKERELVAAIRWSDGSTYYADSVKGRFTISRDNAKNTVYLQMNSLKPEDTAVYYCEYYYWGLGTQVTVSS	low polyreactivity
QVQLVESGGGLVQAGGSLRLSCAASGFIFEGYAMGWYRQAPGKERELVAAISRGGGSTYYADSVKGRFTISRDNAKNTVYLQMNSLKPEDTAVYSCATGGYYHYTGVKMYYWGQGTQVTVSS	high polyreactivity
QVQLVESGGGLVQAGGSLRLSCAASGRTFSRYTMGWYRQAPGKERELVARISQRGGSTYYADSVKGRFTISRDYAKNTVYLQMNSLKPEDTAVYYCAKKTYSPYGGYDSWGQGTQVTVSS	high polyreactivity
QVQLVESGGGLVQAGGSLRLSCAASGFTFGYYGMGSYRQAPGKERELVAAISWSGGSTYYADSVKGRFTISRDNAKNTVYLQMNSLKPEDTAVYYCAASAGYASNYWGQGTQVTVSS	low polyreactivity

Problem: Can you share its polyreactivity (PSR sort gate)? I mean this sequence: `QVQLVESGGGLVQAGGSLRLSCAASGSTFGLYAMGWYRQAPGKERELVAAIRWSGASTYYADSVKGRFTISRDNAKNTVYLQMNSLKPEDTAVYYCARRALGPRRGIRYDYWGQGTQVTVSS`
Result: high polyreactivity

Problem: Query: polyreactivity (PSR sort gate); subject: `QVQLVESGGGLVQAGGSLRLSCAASGSTFRQYAMGWYRQEPGKERELVAAITWRGDNTYYADSVKGRFTISRDNAKNTVYLQMNSLKPEDTAVYYCAAEYTVYVTDWYDYYYWGQGTQVTVSS`
Result: low polyreactivity

Problem: I have this sequence here, `QVQLVESGGGLVQAGGSLRLSCAASGRIFRYNAMGWYRQAPGKERELVAAISSVGSTNYADSVKGRFTISRDNAKNTVYLQMNSLKPEDTAVYYCNAVVRSYVKTYRYYKVDYWGQGTQVTVSS` , and I need its recorded polyreactivity (PSR sort gate).
Result: high polyreactivity

Problem: # lookup: polyreactivity (PSR sort gate) of `QVQLVESGAALVQAGGSLRLSCAASGFIIAVYAMGWYRQAPGKERELVAAITRSGGSTYYADSVKGRFTISRDNAKNTFYLQMNSLKPEDSAVYYCAARNTQPASYGYGYWGLGTQVTVSS`
Result: high polyreactivity

Problem: Look at this sequence and give its reported polyreactivity (PSR sort gate). `QVQLVESGGGLVQAGGSLRLSSAASGNIFVYYAKGLYRHAPGKERELVAAISKRGGSTYYADSVKGRFTISRDNAKNTVYLQMNSLKPEDTAVYYCAALGHVDDSIYDYWGQGTQLTVSS`
Result: high polyreactivity
